Assay: Single ascending oral dose pharmacokinetics (part 1, plasma and urine, fasted)
Type: in vivo, human
Details: human, plasma, oral, cohort/dose E/1000 mg, single dose, geometric mean (%CV)
Measure name: Cmax (µg/mL)
Express it in µg/mL; write the number only.

Query: Find the recorded Cmax belonging to Cn1cnc(Cn2c(=O)[nH]/c(=N\c3cc4cn(C)nc4cc3Cl)n(Cc3cc(F)c(F)cc3F)c2=O)n1 [Ensitrelvir, ensitrelvir fumaric acid] and report it.
Response: 63.8

---

Assay: Multiple-dose pharmacokinetics (part 2, cohorts F, G, H)
Type: in vivo, human
Conditions: human, plasma, oral, 750 mg, G/750/250 mg (Japanese), Day 1, fasted; geometric mean (%CV)
Measure name: Cmax (ng/mL)
Kindly provide the numeric value in ng/mL only, without the unit symbol.

Query: Give its Cmax value. Item: Cn1cnc(Cn2c(=O)[nH]/c(=N\c3cc4cn(C)nc4cc3Cl)n(Cc3cc(F)c(F)cc3F)c2=O)n1
Response: 44800

---

Experiment: Multiple-dose pharmacokinetics (part 2, cohorts F, G, H)
Type: in vivo, human
Conditions: human, plasma, oral, 375 mg, H/375/125 mg (white), Day 1, fasted; median (min, max)
Measure name: Tmax
Give your result as the value with the unit written after it.

Query: Any idea what Tmax was measured for Cn1cnc(Cn2c(=O)[nH]/c(=N\c3cc4cn(C)nc4cc3Cl)n(Cc3cc(F)c(F)cc3F)c2=O)n1 [Ensitrelvir, ensitrelvir fumaric acid] ?
Response: 1.75 h

---

Assay: Single ascending oral dose pharmacokinetics (part 1, plasma and urine, fasted)
Format: in vivo, human
Conditions: human, urine and plasma, oral, cohort/dose D/500 mg, single dose, geometric mean (%CV)
Measure name: CL renal (mL/min)
Report the figure in mL/min without appending any unit label.

Query: Please look up its CL renal: Cn1cnc(Cn2c(=O)[nH]/c(=N\c3cc4cn(C)nc4cc3Cl)n(Cc3cc(F)c(F)cc3F)c2=O)n1
Response: 1.04

---

Assay: Multiple-dose pharmacokinetics (part 2, cohorts F, G, H)
Format: in vivo, human
Conditions: human, plasma, oral, 375 mg, H/375/125 mg (white), Day 1, fasted; geometric mean (%CV)
Measure name: Cmax (ng/mL)
Reply with just the number (in ng/mL).

Query: Can you look up the measured Cmax of Cn1cnc(Cn2c(=O)[nH]/c(=N\c3cc4cn(C)nc4cc3Cl)n(Cc3cc(F)c(F)cc3F)c2=O)n1 for me?
Response: 22700

---

Assay: Single ascending oral dose pharmacokinetics (part 1, plasma and urine, fasted)
Format: in vivo, human
Details: human, plasma, oral, cohort/dose J/2000 mg, single dose, geometric mean (%CV)
Measure name: AUC(0-inf)

Query: Form field: reported AUC(0-inf) of Cn1cnc(Cn2c(=O)[nH]/c(=N\c3cc4cn(C)nc4cc3Cl)n(Cc3cc(F)c(F)cc3F)c2=O)n1 [Ensitrelvir, ensitrelvir fumaric acid]
Response: 6350 µg·h/mL

---

Assay: Single ascending oral dose pharmacokinetics (part 1, plasma and urine, fasted)
Assay type: in vivo, human
Conditions: human, plasma, oral, cohort/dose B/70 mg, single dose, median (min, max), read-out: Tmax
Measure name: Tmax (h)
The answer is to be given in h; state only the numeric part.

Query: I have this compound here, Cn1cnc(Cn2c(=O)[nH]/c(=N\c3cc4cn(C)nc4cc3Cl)n(Cc3cc(F)c(F)cc3F)c2=O)n1 , and I need its recorded Tmax.
Response: 1.5

---

Assay: Single ascending oral dose pharmacokinetics (part 1, plasma and urine, fasted)
Type: in vivo, human
Details: human, urine and plasma, oral, cohort/dose E/1000 mg, single dose, geometric mean (%CV)
Measure name: CL renal (mL/min)
Kindly provide the numeric value in mL/min only, without the unit symbol.

Query: Which measured CL renal value corresponds to Cn1cnc(Cn2c(=O)[nH]/c(=N\c3cc4cn(C)nc4cc3Cl)n(Cc3cc(F)c(F)cc3F)c2=O)n1 ?
Response: 1.11

---

Assay: Single ascending oral dose pharmacokinetics (part 1, plasma and urine, fasted)
Assay type: in vivo, human
Conditions: human, plasma, oral, cohort/dose E/1000 mg, single dose, geometric mean (%CV), read-out: t1/2,z (converted)
Measure name: half-life
Mention the unit after the number when you answer.

Query: Entry Cn1cnc(Cn2c(=O)[nH]/c(=N\c3cc4cn(C)nc4cc3Cl)n(Cc3cc(F)c(F)cc3F)c2=O)n1 : reported half-life = ?
Response: 48.1 h

---

Tested on: CYP3A
Experiment: Drug-drug interaction with midazolam (cohort G)
Conditions: human, in vivo, 2 mg
Measure name: k el

Query: State its k el on CYP3A: Cc1ncc2n1-c1ccc(Cl)cc1C(c1ccccc1F)=NC2
Response: 4.42e-05 s⁻¹

---

Assay: Single ascending oral dose pharmacokinetics (part 1, plasma and urine, fasted)
Format: in vivo, human
Conditions: human, plasma, oral, cohort/dose A/20 mg, single dose, median (min, max), read-out: Tmax
Measure name: Tmax (h)
Form entry: value (h) — number only.

Query: Field request: Tmax | item: Cn1cnc(Cn2c(=O)[nH]/c(=N\c3cc4cn(C)nc4cc3Cl)n(Cc3cc(F)c(F)cc3F)c2=O)n1
Response: 2.5

---

Assay: Single ascending oral dose pharmacokinetics (part 1, plasma and urine, fasted)
Assay type: in vivo, human
Settings: human, plasma, oral, cohort/dose J/2000 mg, single dose, median (min, max), read-out: Tmax
Measure name: Tmax
Record the result as number plus unit.

Query: // returns reported Tmax for input Cn1cnc(Cn2c(=O)[nH]/c(=N\c3cc4cn(C)nc4cc3Cl)n(Cc3cc(F)c(F)cc3F)c2=O)n1 [Ensitrelvir, ensitrelvir fumaric acid]
Response: 4 h

---

Experiment: Single ascending oral dose pharmacokinetics (part 1, plasma and urine, fasted)
Format: in vivo, human
Details: human, plasma, oral, cohort/dose D/500 mg, single dose, geometric mean (%CV)
Measure name: AUC(0-inf) (µg·h/mL)
Report as a plain number; the unit µg·h/mL is understood.

Query: Can you look up the measured AUC(0-inf) of Cn1cnc(Cn2c(=O)[nH]/c(=N\c3cc4cn(C)nc4cc3Cl)n(Cc3cc(F)c(F)cc3F)c2=O)n1 for me?
Response: 1990

---

Assay: Multiple-dose pharmacokinetics (part 2, cohorts F, G, H)
Format: in vivo, human
Settings: human, plasma, oral, H/375/125 mg (white), Day 5, fasted; geometric mean (%CV); read-out: AUC0-τ
Measure name: AUC (µg·h/mL)
Provide only the numeric value, understood in µg·h/mL.

Query: AUC for Cn1cnc(Cn2c(=O)[nH]/c(=N\c3cc4cn(C)nc4cc3Cl)n(Cc3cc(F)c(F)cc3F)c2=O)n1 [Ensitrelvir, ensitrelvir fumaric acid] ?
Response: 516

---

Assay: Single ascending oral dose pharmacokinetics (part 1, plasma and urine, fasted)
Assay type: in vivo, human
Details: human, plasma, oral, cohort/dose J/2000 mg, single dose, geometric mean (%CV)
Measure name: MRT (h)
Report the value in h with no unit label.

Query: Give the measured MRT of Cn1cnc(Cn2c(=O)[nH]/c(=N\c3cc4cn(C)nc4cc3Cl)n(Cc3cc(F)c(F)cc3F)c2=O)n1 .
Response: 67.4

---

Assay: Single ascending oral dose pharmacokinetics (part 1, plasma and urine, fasted)
Format: in vivo, human
Conditions: human, plasma, oral, cohort/dose D/500 mg, single dose, geometric mean (%CV), read-out: Vz/F
Measure name: Vd/F (L)
Express the result in L but write the number alone.

Query: Which Vd/F is listed for Cn1cnc(Cn2c(=O)[nH]/c(=N\c3cc4cn(C)nc4cc3Cl)n(Cc3cc(F)c(F)cc3F)c2=O)n1 ?
Response: 15.3

---

Tested on: CYP3A
Assay: Drug-drug interaction with midazolam (cohort G)
Conditions: human, in vivo
Measure name: half-life (h)
Numeric answer only, unit h assumed.

Query: Reported half-life, molecule Cc1ncc2n1-c1ccc(Cl)cc1C(c1ccccc1F)=NC2 : ____
Response: 9.13

---

Test: Effect of food on pharmacokinetics (cohort C, 250 mg crossover)
Type: in vivo, human
Details: human, plasma, oral, 250 mg, Cohort C/250 mg single dose, Fasted; read-out: t1/2,z, GLS mean (converted)
Measure name: half-life (h)
Expressed in h, but write only the number.

Query: Suppose we examine the compound Cn1cnc(Cn2c(=O)[nH]/c(=N\c3cc4cn(C)nc4cc3Cl)n(Cc3cc(F)c(F)cc3F)c2=O)n1 ; what half-life value has been reported?
Response: 43.1

---

Test: Multiple-dose pharmacokinetics (part 2, cohorts F, G, H)
Type: in vivo, human
Details: human, plasma, oral, 375 mg, F/375/125 mg (Japanese), Day 1, fasted; median (min, max)
Measure name: Tmax
Remember to put the unit after the number in your answer.

Query: # query: Tmax of entry Cn1cnc(Cn2c(=O)[nH]/c(=N\c3cc4cn(C)nc4cc3Cl)n(Cc3cc(F)c(F)cc3F)c2=O)n1
Response: 1.5 h

---

Assay: Effect of food on pharmacokinetics (cohort C, 250 mg crossover)
Assay type: in vivo, human
Details: human, plasma, oral, 250 mg, Cohort C/250 mg single dose, Fed; read-out: AUC0-inf, GLS mean
Measure name: AUC(0-inf)

Query: Requested field: AUC(0-inf). Item: Cn1cnc(Cn2c(=O)[nH]/c(=N\c3cc4cn(C)nc4cc3Cl)n(Cc3cc(F)c(F)cc3F)c2=O)n1
Response: 956 µg·h/mL
